Below, each entry is listed with its recorded LD50 at 336 h.
- protocol-text: acute toxicity test in mice (Litchfield and Wilcoxon)
- Type: in vivo, mouse
- condition-context: mouse, in vivo, po., 14 days observation

In the examples that follow, each entry is paired with its recorded LD50 at 336 h.
molecule="COc1ccc(CCNCC(O)CO/N=C2\\CCCC\\C2=C/c2ccccc2)cc1OC (racemic)" metric_name="LD50 at 336 h" result="> 1000 mg/kg"
molecule="C#CC(C)(C)NCC(O)CO/N=C1\\CCCCC\\C1=C/c1ccccc1 (racemic)" metric_name="LD50 at 336 h" result="> 1000 mg/kg"
molecule="OC(CO/N=C1\\CCCCC\\C1=C/c1ccccc1)CN1CCOCC1 (racemic)" metric_name="LD50 at 336 h" result="> 1000 mg/kg"

Turning now to a further molecule:
May I ask what LD50 at 336 h has been recorded for CCCNCC(O)CO/N=C1\CCCCC\C1=C/c1ccc(OC)cc1 (racemic) ? 800 mg/kg

----------
- protocol-text: acute toxicity test in mice (Litchfield and Wilcoxon)
- Format: in vivo, mouse
- condition-context: mouse, in vivo, po., 14 days observation
metric-name: LD50 at 336 h

molecule="COc1ccccc1/C=C1\\CCCC\\C1=N/OCC(O)CN1CCOCC1 (racemic) [Example 37]" result="> 1000 mg/kg"
molecule="CCCCNCC(O)CO/N=C1\\CCCC\\C1=C/c1ccc(Cl)c(Cl)c1 (racemic) [Example 33]" result="> 1000 mg/kg"
molecule="CC(C)N(CC(O)CO/N=C1\\CCCCC\\C1=C/c1ccccc1)C(C)C (racemic) [Example 14]" result="900 mg/kg"

May I ask what LD50 at 336 h has been recorded for OC(CO/N=C1\CCCC\C1=C/c1ccccc1)CN1CCCCC1 (racemic) [Example 9] ? 700 mg/kg

What about OC(CO/N=C1\CCCCCC\C1=C/c1ccccc1)CN1CCOCC1 (racemic) [Example 18] ? > 1000 mg/kg

----------
- Test system: aconitine-induced ECG alterations
- protocol-text: animal or person
- Type: in vivo, rat
- condition-context: Rattus norvegicus, iv, read-out: Effect % (antiarrhythmic)
Would you mind classing the entries by change in vivo at 4 mg/kg? Ranges: A = under -80%, B = from -80% up to -40%, C = -40% and over

For orientation, consider the following solved cases.
compound="CC(C)N(CC(O)CO/N=C1\\CCCC\\C1=C/c1ccccc1)C(C)C (racemic) [Example 1]" system_tested="aconitine-induced ECG alterations" assigned_class=A
compound="OC(CO/N=C1\\CCCC\\C1=C/c1ccccc1)CN1CCCCCC1 (racemic) [Example 10]" system_tested="aconitine-induced ECG alterations" assigned_class=B
compound="CC(C)(C)NCC(O)CO/N=C1\\CCCC\\C1=C/c1ccccc1Cl (racemic) [Example 23]" system_tested="aconitine-induced ECG alterations" assigned_class=A
compound="Cc1cccc(C)c1OCC(C)N (stereo not drawn) [Mexiletine, reference compound]" system_tested="aconitine-induced ECG alterations" assigned_class=C
compound="CCCNCC(O)CO/N=C1\\CCCC\\C1=C/c1c(Cl)cccc1Cl (racemic) [Example 35]" system_tested="aconitine-induced ECG alterations" assigned_class=A
compound="CC(C)N(CC(O)CO/N=C1\\CCCCCC\\C1=C/c1ccccc1)C(C)C (racemic) [Example 19]" system_tested="aconitine-induced ECG alterations" assigned_class=B

In plain terms, what class is C=C[C@H]1C[N@@]2CC[C@H]1C[C@@H]2[C@@H](O)c1ccnc2ccc(OC)cc12 [Quinidine, reference compound] ? C

What about OC(CO/N=C1\CCCCCC\C1=C/c1ccccc1)CN1CCOCC1 (racemic) [Example 18] ? B

What about CC(C)N(CC(O)CO/N=C1\CCC\C1=C/c1ccccc1)C(C)C (racemic) [Example 21] ? B

----------
- System: hexobarbital narcosis
- protocol-text: narcosis potentiating effect (hexobarbital sleeping time)
- condition-context: Mus musculus, po, read-out: ED50 (narcosis potentiation)
metric-name: ED50 (mg/kg)
Response body: numeric value in mg/kg, unit text excluded.

In the examples that follow, each entry is paired with its recorded ED50.
molecule="CNC1=Nc2ccc(Cl)cc2C(c2ccccc2)=[N+]([O-])C1 [Chlordiazepoxide, reference compound]" system_tested="hexobarbital narcosis" numeric_value=10
molecule="CCCNCC(O)CO/N=C1\\CCCC\\C1=C/c1c(Cl)cccc1Cl (racemic)" system_tested="hexobarbital narcosis" numeric_value=11.5
molecule="OC(CNC1CC1)CO/N=C1\\CCCC\\C1=C/c1ccc(Cl)cc1 (racemic)" system_tested="hexobarbital narcosis" numeric_value=35
molecule="CN1CCN(CC(O)CO/N=C2\\CCCC\\C2=C/c2c(Cl)cccc2Cl)CC1 (racemic)" system_tested="hexobarbital narcosis" numeric_value=14
molecule="CCCNCC(O)CO/N=C1\\CCCCC\\C1=C/c1ccc(OC)cc1 (racemic)" system_tested="hexobarbital narcosis" numeric_value=50

May I ask what ED50 has been recorded for C#CC(C)(C)NCC(O)CO/N=C1\CCCC\C1=C/c1ccc(Cl)cc1 (racemic) ? 50

What about OC(CO/N=C1\CCCCCC\C1=C/c1ccccc1)CN1CCOCC1 (racemic) ? 25

What about CC(C)N(CC(O)CO/N=C1\CCCCCC\C1=C/c1ccccc1)C(C)C (racemic) ? 26

----------
- protocol-text: LD50 po. on rat
- condition-context: in vivo
Below, each entry is listed with its recorded LD50.
Response body: numeric value in mg/kg, unit text excluded.

May I ask what LD50 has been recorded for CC(C)N(CC(O)CO/N=C1\CCCC\C1=C/c1ccccc1)C(C)C (racemic) ? 1760

What about C=C[C@H]1C[N@@]2CC[C@H]1C[C@@H]2[C@@H](O)c1ccnc2ccc(OC)cc12 [Quinidine, reference compound] ? 1130

----------
- protocol-text: absorption judged by ED50 per os/ED50 iv
- condition-context: in vivo
metric-name: absorption ratio (ED50 po / ED50 iv)
Lab note: jot the number down without any unit.

May I ask what absorption ratio (ED50 po / ED50 iv) has been recorded for CC(C)N(CC(O)CO/N=C1\CCCC\C1=C/c1ccccc1)C(C)C (racemic) [Example 1] ? 20.6

----------
Below, each entry is listed with its recorded TI (therapeutic index).
- System: hexobarbital narcosis
- protocol-text: narcosis potentiating effect (hexobarbital sleeping time)
- condition-context: narcosis potentiation, mice, po.
Lab note: jot the number down without any unit.

molecule="CCCNCC(O)CO/N=C1\\CCCC\\C1=C/c1c(Cl)cccc1Cl (racemic) [Example 35]" system_tested="hexobarbital narcosis" metric_name="TI (therapeutic index)" numeric_value=52
molecule="CC(C)N(CC(O)CO/N=C1\\CCCCCC\\C1=C/c1ccccc1)C(C)C (racemic) [Example 19]" system_tested="hexobarbital narcosis" metric_name="TI (therapeutic index)" numeric_value=31
molecule="COc1ccccc1/C=C1\\CCCC\\C1=N/OCC(O)CN1CCN(c2ccccc2OC)CC1 (racemic) [Example 38]" system_tested="hexobarbital narcosis" metric_name="TI (therapeutic index)" numeric_value=16
molecule="CC(C)(C)NCC(O)CO/N=C1\\CCCC\\C1=C/c1ccccc1Cl (racemic) [Example 23]" system_tested="hexobarbital narcosis" metric_name="TI (therapeutic index)" numeric_value=8
molecule="CC(C)NCC(O)CO/N=C1\\CCCC\\C1=C/c1ccc(Cl)cc1 (racemic) [Example 28]" system_tested="hexobarbital narcosis" metric_name="TI (therapeutic index)" numeric_value=20
molecule="OC(CNC1CC1)CO/N=C1\\CCCC\\C1=C/c1ccc(Cl)cc1 (racemic) [Example 27]" system_tested="hexobarbital narcosis" metric_name="TI (therapeutic index)" numeric_value=29
molecule="CCCC(C)(COC(N)=O)COC(N)=O [Meprobamate, reference compound]" system_tested="hexobarbital narcosis" metric_name="TI (therapeutic index)" numeric_value=4.2
molecule="COc1ccc(CCNCC(O)CO/N=C2\\CCCC\\C2=C/c2ccccc2)cc1OC (racemic) [Example 7]" system_tested="hexobarbital narcosis" metric_name="TI (therapeutic index)" numeric_value=14

May I ask what TI (therapeutic index) has been recorded for CNC1=Nc2ccc(Cl)cc2C(c2ccccc2)=[N+]([O-])C1 [Chlordiazepoxide, reference compound] ? 62

What about OC(CO/N=C1\CCCC\C1=C/c1ccccc1)CN1CCCCC1 (racemic) [Example 9] ? 23

----------
- Test system: peristalty of stomach and intestines
- protocol-text: effect exerted on the peristalty of stomach and intestines (Stickney et al., carbon suspension)
- Format: in vivo, mouse
- condition-context: antiperistaltic, po., mice
- Experimental: The antiperistaltic effect of the compounds was examined by the method of Stickney et al. on white mice of both sexes, weighing 20 to 25 g. The compounds to be tested were administered per os 60 minutes before the addition of carbon suspension to groups containing 10 mice each. […] The mice were killed 10 minutes after the addition of the carbon suspension, and the whole length of the intestines as well as the length of the intestines filled with carbon suspension were measured.
Below, each entry is listed with its recorded TI (therapeutic index).
Lab note: jot the number down without any unit.

compound="OC(CO/N=C1\\CCCCC\\C1=C/c1ccccc1)CN1CCOCC1 (racemic) [Example 15]" metric_name="TI (therapeutic index)" numeric_value=7
compound="CN(C)CCCNCC(O)CO/N=C1\\CCCC\\C1=C/c1ccccc1 (racemic) [Example 11]" metric_name="TI (therapeutic index)" numeric_value=10
compound="OC(CO/N=C1\\CCCC\\C1=C/c1ccccc1)CN1CCN(Cc2ccccc2)CC1 (racemic) [Example 6]" metric_name="TI (therapeutic index)" numeric_value=7
compound="OC(CO/N=C1\\CCCC\\C1=C/c1ccccc1)CN1CCN(c2ccccc2)CC1 (racemic) [Example 5]" metric_name="TI (therapeutic index)" numeric_value=14
compound="COc1ccccc1/C=C1\\CCCC\\C1=N/OCC(O)CN1CCN(c2ccccc2OC)CC1 (racemic) [Example 38]" metric_name="TI (therapeutic index)" numeric_value=44

Give the reported TI (therapeutic index) for CC(C)CNCC(O)CO/N=C1\CCCC\C1=C/c1ccc(Cl)cc1 (racemic) [Example 30] (system: peristalty of stomach and intestines). 8
